Where do these numbers come from? They come from the supplement of paper PMC9170038.

Task for the reader: assign each of the following sequences its reported apparent KD of MS2 coat protein.
System: MS2 coat protein
Assay: apparent KD of MS2 coat protein; designed switch direction (-1 OFF switch, 1 ON switch): -1; higher = weaker reporter binding
Conditions: input ligand: none
Response body: numeric value in nM, unit text excluded.

Q: Return value of apparent KD of MS2 coat protein for input CCCACCAGAGGAUAUGCGCAUAGAUCAGACUUUGUUUCUGAACAUGAGGAUCACCCAUGUAGAAGGCUGUAACC [Ex2 #87] (Eterna round: R97, puzzle: Exclusion 2) , no commentary.
A: 24.3

Q: Specify reported apparent KD of MS2 coat protein for the sequence shown: CAGGCGUCUGUGCGUGGUGACAUGAGGAUCACCCAUGUUUUGCUCGUUUUGUCUUGGGCUCGGCGCCCGGGUUCGGG [-24.5, -48.6, A 9%] (Eterna round: R97, puzzle: Sensor, turn-off variant 1)
A: 208

Q: Identify apparent KD of MS2 coat protein associated with the sequence AAUUUAAUUAACAAGCUUUACAUGAGGAUCACCCAUGUGAUCAUGCUCGUCUUAUAAUUAAUUAAUUAAUUAAUUAA [Stov1/6-A1] (Eterna round: R97, puzzle: Sensor, turn-off variant 1)
A: 59.2

Q: Tell me apparent KD of MS2 coat protein reported for AAUUAGCAAGCAAGAUCCCACAUGAGGAUCACCCAUGUGCUCGUCUUAUAAGGUACUGUGACGAUAGUCACGGUACC [Mat - Sensor, turn-off var - Eli Mod - D49] (Eterna round: R97, puzzle: Sensor, turn-off variant 1)
A: 49.4

Q: Identify measured apparent KD of MS2 coat protein associated with AUGCCGAGUGUAGGAUAUGGCCCGGAACCACGGCCAGAAGGACAUGAGGAUCACCCAUGUGGCCCGAUAUACACGGUAUCAGAC [Eternabot solution 1] (Eterna round: R96, puzzle: Exclusion NG 1)
A: 24.4

Q: Give the reported apparent KD of MS2 coat protein for this sequence. UAGAUGGGAGGAUAUACGUAGAUGCAGGUUCGUGUGGUGCUACAUGAGGAUCACCCAUGUAGAAGGCCCGUCUU [Resubmit R3 JL-ex2-2.29] (Eterna round: R97, puzzle: Exclusion 2)
A: 18.4

Q: Read off the recorded apparent KD of MS2 coat protein for AGCAUGCAGUAGGAUAUCGAUCCGCAAUAUGAACGAGAAGGGCUGACAUGAGGAUCACCCAUGUGCGUCCUAGG [jl-ex6-4.40 ViennaUCT mod] (Eterna round: R97, puzzle: Exclusion 6)
A: 20.2

Q: Quote apparent KD of MS2 coat protein reported for ACAAACAGCUGAGGAUAUCACGAGCAAGGCCAGUGAGAAGGUAGCUCAAACAUGAGGAUCACCCAUGUUAAACUUCCUCAUGCG [Raisorar] (Eterna round: R96, puzzle: Exclusion NG 1) please.
A: 17.7

Q: Input AGCUGUGGCCGAGGAUAUCUGUUCCAAAUAACCGACGUAUAGUCGGACAUGAGGAUCACCCAUGUAGAGAAGGCGGUCUCAGCA [Eli eng2 - 101] (Eterna round: R96, puzzle: Exclusion NG 2) , output reported apparent KD of MS2 coat protein.
A: 63.9
